# Tested on: PA-1
# Procedure Text: Primary qHTS to identify gynecologic anti-cancer compounds using libraries of approved drugs and bioactive compounds (AID 1345084); note: % is set by controls: 0 for no effect and ±100 for the full control effect; nearly all actives have a fitted effect of over 55% in size
# Study Conditions: Gynecologic cancer cell panel viability, ATPlite luminescence, 48 h; series mostly up to 57.5 µM
Records with an inconclusive call do not appear. Active and inactive are the calls of the source. Calls come from the whole dose curve; as a rule, active = well fitted cell-killing curve with a large enough effect; inconclusive = small, poorly fitted or top-dose-only effect, or effect the other way; inactive = flat fitted curve, though single readings scatter. *1 amine or outer side, *2 acyl side, *3 side chain or, on linkers, in order; H or OH if unused. Where a SMILES comes first, the peptide text is derived from it. [ ]: non-standard residue; d: D form. X13 = O=C(C(CC(O)CO)O[*:1])[*:2]; NMeV = CN[CH](C(=O)O)C(C)C; NMeA = CN[CH](C)C(=O)O; βAla = NCCC(=O)O
Property Label: activity change, negative = cytotoxicity

Cc1cccc(-c2nn3c(c2-c2ccnc4ccc(C(N)=O)cc24)CCC3)n1 ... inactive
O=C(CC1CC(c2ccc(F)cc2F)=NO1)N1CCOCC1 (stereo not drawn) ... inactive
CC/C=C/C=C/C1(C)OC(CC(CO)OC)=CC1=O (stereo not drawn) ... inactive
N#Cc1cccc(-c2c[nH]c3ncnc(N4CCOCC4)c23)c1 ... inactive
CCC(C)C1NC(=O)C2CCCN2C(=O)C(CC(O)CO)OC(=O)CCNC(=O)C(C)N(C)C(=O)C(C(C)C)N(C)C1=O (stereo not drawn) (cyclo([X13]PI[NMeV][NMeA][βAla]); configuration not given here) ... inactive

What measured activity change, negative = cytotoxicity goes with CN1CCc2cc(Cl)c(O)cc2[C@@H](c2cccc3c2OCC3)C1 ?
inactive

Now consider NC(=O)[C@H](Cc1ccccc1)NC(=O)[C@H](CCCN=C(N)N)NC(=O)C12CC3CC(CC(C3)C1)C2 .
5.55% [at 11.6 µM] (inactive)

Try Cc1cn(-c2cc(NC(=O)c3ccc(C)c(Nc4nccc(-c5cnccn5)n4)c3)cc(C(F)(F)F)c2)cn1 next.
inactive

---

# Test system: Zika virus NS2B-NS3 protease (unlinked complex)
# Procedure Text: Primary screen GU Rhodamine qHTS for Zika virus inhibitors: Unlinked NS2B-NS3 protease assay (AID 1347159); note: nearly all actives have a fitted effect of over 60% in size
# Study Conditions: Recombinant ZIKV NS2B-NS3 protease, Rhodamine110 substrate fluorescence; series mostly up to 107 µM
# Source text: Avindra Nath, Ph.D., National Institute of Neurological Disorders and Stroke (NINDS), Bethesda, MD Radhakrishnan Padmanabhan, Ph.D., Georgetown University (GU), Washington D.C. Zika Virus causes congenital defects, including microcephaly and is associated with Guillain-Barre syndrome, eningoencephalitis and myelitis in infected adult. […]
Results filed as inconclusive are left out. The source made the active and inactive calls. Calls follow the shape of the dose curve; as a rule, active = well fitted inhibition curve with a large enough effect; inconclusive = small, poorly fitted or top-dose-only effect; inactive = no such curve, though single readings can be large or run the other way.
Returns: one label drawn from True = active, False = inactive

Some entries whose results are on file:
C=C1C2CCC3C(CCC4[C@@]3(C)CCC[C@@]4(C)C(=O)O)(C2)[C@@H]1OC(=O)/C(C)=C\C (stereo partly drawn) ... True
C=C1C(OC(C)=O)C(=O)C2C(C)(C)C(O)CCC2(C)C1CC(OC(C)=O)/C(C)=C/COC(C)=O (stereo not drawn) ... False
O=C(OCC1=CC(Cl)C(O)C(OC(=O)c2ccccc2)C1O)c1ccccc1 (stereo not drawn) ... False
C=C1CCC2C(C)(C(=O)O)CCCC2(C)C1CC/C(C)=C\CO (stereo not drawn) ... False

Lab log entry: Nc1ncnc2c1ncn2[C@H]1O[C@@H](C(=O)N2CCN(CC(=O)Nc3cccc4c3CNC4=O)CC2)[C@H](O)[C@@H]1O — outcome as called in the assay?
False

Again, but for CC1=CC2=C(C)C(=O)[C@](C)(O)[C@H](O)C2=CO1
False

Consider next the compound Cc1c(C)c(NCC(=O)N(C)C2CCN(Cc3ccc(C(N)=O)cc3)CC2)c(C)c(C)c1N in the same way.
False
